Cited source for all entries: PubChem BioAssay (NCI)

Recorded measurements of GI50, one per entry
Tested on: MDA-MB-468 breast
Procedure Summary: NCI tumour cell line growth inhibition, 48 h

{"Smiles Input": "COc1ccc(S(=O)(=O)n2c3ccccc3n3ncc(-c4nnc(C)o4)c23)cc1", "GI50": "266 nM"}
{"Smiles Input": "FC(F)(F)c1cc(NC2=NCCN=C(Nc3cc(C(F)(F)F)cc(C(F)(F)F)c3)SS2)cc(C(F)(F)F)c1", "GI50": "2070 nM"}
{"Smiles Input": "Cn1c(O)c(N=NC(N)=S)c2ccccc21", "GI50": "20400 nM"}
{"Smiles Input": "C=C1C(=O)O[C@H]2[C@H]1CC/C(COC(=O)/C=C/c1c[nH]c3ccccc13)=C\\CC[C@@]1(C)O[C@@H]21", "GI50": "196 nM"}
{"Smiles Input": "O=C(Nc1cccc([N+](=O)[O-])c1)c1cc2ccccc2cc1O", "GI50": "2320 nM"}

###

In this section, each of the compounds is paired with its reported log10(TGI).
Test system: MDA-MB-468 breast
Procedure Summary: NCI tumour cell line growth inhibition, 48 h
Quantity: log10(TGI) (log10 of the value in µM)

{"Compound": "O=C(Nc1ccc(-c2ccnc(Nc3ccc(N4CCOCC4)cc3)n2)cc1)C1CCCN1 (stereo not given)", "log10(TGI)": 1.42}
{"Compound": "N#Cc1ncc(N2C(=O)C3(CCC3)N(c3ccc(OC4CCNCC4)nc3)C2=S)cc1C(F)(F)F", "log10(TGI)": 1.39}
{"Compound": "COc1ccc(S(=O)(=O)n2c3ccccc3n3ncc(-c4nnc(C)o4)c23)cc1", "log10(TGI)": 0.74}
{"Compound": "COC(=O)C[C@](O)(CCCC(C)(C)O)C(=O)O[C@H]1C(OC)=C[C@@]23CCCN2CCc2cc4c(cc2[C@@H]13)OCO4", "log10(TGI)": 0.32}
{"Compound": "c1cc2ccc1CNCCN1CCNCc3ccc(cc3)Oc3ccc(cc3)CNCCN(CCNCc3ccc(cc3)O2)CCNCc2ccc(cc2)Oc2ccc(cc2)CNCC1", "log10(TGI)": 0.32}
{"Compound": "CS(=O)(=O)Nc1cc(-c2ccc3ncnc(Nc4cccc(Cl)c4F)c3c2)cnc1Cl", "log10(TGI)": 0.54}
{"Compound": "N#CC1CCc2c(c(-c3cn[nH]c3C(F)(F)F)nc3c(F)cc4[nH]ncc4c23)C1 (stereo not given)", "log10(TGI)": 0.79}
{"Compound": "OC1CCN(CCCOc2c3ccccc3nc3c2oc2ccc(Cl)cc23)CC1", "log10(TGI)": 0.76}
{"Compound": "Brc1ccc2c(c1)c(-c1nc(-c3c[nH]c4ncccc34)cs1)cn2CCCN1CCCCC1", "log10(TGI)": 0.51}
{"Compound": "CCN(CC)CCOc1nc2cc(OC)c(OC)cc2c2c1-c1ccc(OC)cc1C2=O", "log10(TGI)": 1.36}
{"Compound": "O=C(Nc1cccc([N+](=O)[O-])c1)c1cc2ccccc2cc1O", "log10(TGI)": 1.24}

###

Tested on: MDA-MB-468 breast
Procedure Summary: NCI tumour cell line growth inhibition, 48 h; in the data active means GI50 below about 0.43 µM; inactive means the rest
Classes used: y for active, n for inactive

{"Compound": "O=c1oc2cc(OS(=O)(=O)c3ccccc3)ccc2c2c1CCCCC2", "Class Assignment": "n"}
{"Compound": "COc1cc(CNC(=O)CCSc2nc3ccccc3c(=O)n2Cc2cc(OC)c(OC)c(OC)c2)cc(OC)c1OC", "Class Assignment": "n"}
{"Compound": "NC(=S)N/N=C\\c1nccc2c(C(F)(F)C(F)(F)C(F)(F)F)cccc12", "Class Assignment": "y"}
{"Compound": "N#CC1CCc2c(c(-c3cn[nH]c3C(F)(F)F)nc3c(F)cc4[nH]ncc4c23)C1 (stereo not given)", "Class Assignment": "n"}
{"Compound": "OC1CCN(CCCOc2c3ccccc3nc3c2oc2ccc(Cl)cc23)CC1", "Class Assignment": "n"}

###

Recorded TGI for the following molecules
Test system: MDA-MB-468 breast
Procedure Summary: NCI tumour cell line growth inhibition, 48 h
Quantity: TGI

{"Molecule": "O=c1oc2cc(OS(=O)(=O)c3ccccc3)ccc2c2c1CCCCC2", "Target Or Test System": "MDA-MB-468 breast", "Quantity": "TGI", "Value Observed": "> 100 µM"}
{"Molecule": "CC[C@H](C)[C@H](NC(=O)c1nccn1C)C(=O)N(C)[C@H](C[C@@H](OC(C)=O)c1nc(C(=O)N[C@@H](Cc2ccccc2)C[C@H](C)C(=O)OC)cs1)C(C)C", "Target Or Test System": "MDA-MB-468 breast", "Quantity": "TGI", "Value Observed": "> 33.3 µM"}
{"Molecule": "O=c1[nH]cnc2nc(-c3ccc(N(CCCl)CCCl)cc3)[nH]c12", "Target Or Test System": "MDA-MB-468 breast", "Quantity": "TGI", "Value Observed": "> 100 µM"}
{"Molecule": "C#CCOc1cccc(Nc2ncc3ncn(C4CCN(C(=O)CCl)C4)c3n2)c1 (centres undefined)", "Target Or Test System": "MDA-MB-468 breast", "Quantity": "TGI", "Value Observed": "> 62.5 µM"}
